System: plasmid-encoded luciferase in HEK293 cells
measurement-protocol: Transient transfection of luciferase expression plasmid (CMV promoter) with peptide, luciferase in cell lysates
test-settings: peptide 2 μM, 24 hrs post-transfection, HEK293, relative to DMSO control
Ends that are not written are not given here.
luciferase % of DMSO con- overview
property-name: luciferase % of DMSO con- (%)

{"substance": "CLAFYCFC [I24 M13]", "assayed-target": "plasmid-encoded luciferase in HEK293 cells", "observed-result": 64.9}
{"substance": "CLAFYACFWC [I24 M20]", "assayed-target": "plasmid-encoded luciferase in HEK293 cells", "observed-result": 5.6}
{"substance": "CLAFYACFCGGGCLAFYACFC [I24 dimer]", "assayed-target": "plasmid-encoded luciferase in HEK293 cells", "observed-result": 3.8}
{"substance": "CLAFRACFC [I24 M27]", "assayed-target": "plasmid-encoded luciferase in HEK293 cells", "observed-result": 110.9}
{"substance": "CLARYACFC [I24 M26]", "assayed-target": "plasmid-encoded luciferase in HEK293 cells", "observed-result": 128.6}
{"substance": "CAAFYACFC [I24 M11]", "assayed-target": "plasmid-encoded luciferase in HEK293 cells", "observed-result": 32.2}
{"substance": "CLAFYACLWC [I24 M22]", "assayed-target": "plasmid-encoded luciferase in HEK293 cells", "observed-result": 6.8}
{"substance": "CLVFYACFC [I24 M12]", "assayed-target": "plasmid-encoded luciferase in HEK293 cells", "observed-result": 11.8}
{"substance": "CLAFYACRC [I24 M30]", "assayed-target": "plasmid-encoded luciferase in HEK293 cells", "observed-result": 116.5}
{"substance": "CLAFYRCFC [I24 M28]", "assayed-target": "plasmid-encoded luciferase in HEK293 cells", "observed-result": 93.4}
{"substance": "CLAYFCFC [I24 M16]", "assayed-target": "plasmid-encoded luciferase in HEK293 cells", "observed-result": 68.7}
{"substance": "FYACFC [I24 M9]", "assayed-target": "plasmid-encoded luciferase in HEK293 cells", "observed-result": 103.6}
{"substance": "FYCFAC [I24_M19]", "assayed-target": "plasmid-encoded luciferase in HEK293 cells", "observed-result": 118.6}
{"substance": "CLAFYACFC (cysteine pairing not given here) [I24]", "assayed-target": "plasmid-encoded luciferase in HEK293 cells", "observed-result": 12.2}
{"substance": "SAFYACFAC [I24 M7]", "assayed-target": "plasmid-encoded luciferase in HEK293 cells", "observed-result": 75.9}
{"substance": "CLAFYACFAC [I24 M5]", "assayed-target": "plasmid-encoded luciferase in HEK293 cells", "observed-result": 10.6}
{"substance": "CLLYFCFC [I24 M17]", "assayed-target": "plasmid-encoded luciferase in HEK293 cells", "observed-result": 16.7}
{"substance": "SVFYACFC [I24 M31]", "assayed-target": "plasmid-encoded luciferase in HEK293 cells", "observed-result": 135.5}
{"substance": "CLAFYAC [I24 M2]", "assayed-target": "plasmid-encoded luciferase in HEK293 cells", "observed-result": 110.1}
{"substance": "SLAFYASFS [I24 M4]", "assayed-target": "plasmid-encoded luciferase in HEK293 cells", "observed-result": 100.5}
{"substance": "SVFYACFAC [I24_M8]", "assayed-target": "plasmid-encoded luciferase in HEK293 cells", "observed-result": 103.7}
{"substance": "WSEQCFTCWW [reference compound]", "assayed-target": "plasmid-encoded luciferase in HEK293 cells", "observed-result": 106.2}
{"substance": "CLAFYCFAC [I24 M14]", "assayed-target": "plasmid-encoded luciferase in HEK293 cells", "observed-result": 63.2}
{"substance": "SLAFYACFAC [I24 M6]", "assayed-target": "plasmid-encoded luciferase in HEK293 cells", "observed-result": 41.9}
{"substance": "CLAFYARFC [I24 M29]", "assayed-target": "plasmid-encoded luciferase in HEK293 cells", "observed-result": 56.3}
{"substance": "FYACFAC [I24 M10]", "assayed-target": "plasmid-encoded luciferase in HEK293 cells", "observed-result": 104.2}
